- Test: [11C]GSK1034702 PET brain distribution and kinetics in healthy male humans
- Assay type: in vivo
- Particulars: human, brain cortex, intravenous, Cortex, Subject 1 Scan 1 (baseline), read-out: V T
- Method: An open-label PET study (GSK study number 110771) was conducted to assess the transport of [^11C]GSK1034702 across the BBB and its distribution in the living human brain. […] Clinical status was assessed by history, physical examination, routine blood tests, urine toxicology and electrocardiogram. […] Subjects were recruited by and monitored by the Hammersmith Medicines Research (HMR) clinic. […]

Molecule	Kp
[11CH3]c1cc(F)c2[nH]c(=O)n(C3CCN(C4CCOCC4)CC3)c2c1 [[^11C]GSK1034702]	5.37
